test system: pigweed (Amaranthus retroflexus); experiment: Test A pre-/postemergence plant response; assay type: in vivo; settings: Postemergence, 125 g ai/ha; visual injury, 0 to 100 scale (0 no effect, 100 complete control), approx. ten days
Plant response rating, Pigweed for assorted compounds
API doc: respond with a numeric literal and nothing else, no unit.

Consider the reported Plant response rating, Pigweed for these compounds:
compound="CCCCn1c(-c2cc(F)cc(F)c2)ncc(C(=O)C2=C(O)C3CCC(C3)C2=O)c1=O (stereo not shown)" recorded_value=100
compound="O=C(C1=C(O)C2CCC(C2)C1=O)c1cnc(-c2cc(F)c(F)c(F)c2)n(C2CCCCC2)c1=O (stereo not shown)" recorded_value=70
compound=CCc1ccccc1-n1c(-c2ccccc2)ncc(C(=O)C2=C(O)CCCC2=O)c1=O recorded_value=90

Now for a further compound.
### Prompt What value of measured Plant response rating, Pigweed is listed for O=C(C1=C(O)C2CCC(C2)C1=O)c1cnc(-c2cccc(Br)c2)n(C2CCCCC2)c1=O (stereo not shown) ?
### Response 70
